Target: T1, full-length human Nectin-4 on cells (human, UniProt Q96NY8 32-510)
T1 construct: the cell is named under assay; also called CHO-Nectin-4 cells; Nectin-4-CHO
T1 sequence: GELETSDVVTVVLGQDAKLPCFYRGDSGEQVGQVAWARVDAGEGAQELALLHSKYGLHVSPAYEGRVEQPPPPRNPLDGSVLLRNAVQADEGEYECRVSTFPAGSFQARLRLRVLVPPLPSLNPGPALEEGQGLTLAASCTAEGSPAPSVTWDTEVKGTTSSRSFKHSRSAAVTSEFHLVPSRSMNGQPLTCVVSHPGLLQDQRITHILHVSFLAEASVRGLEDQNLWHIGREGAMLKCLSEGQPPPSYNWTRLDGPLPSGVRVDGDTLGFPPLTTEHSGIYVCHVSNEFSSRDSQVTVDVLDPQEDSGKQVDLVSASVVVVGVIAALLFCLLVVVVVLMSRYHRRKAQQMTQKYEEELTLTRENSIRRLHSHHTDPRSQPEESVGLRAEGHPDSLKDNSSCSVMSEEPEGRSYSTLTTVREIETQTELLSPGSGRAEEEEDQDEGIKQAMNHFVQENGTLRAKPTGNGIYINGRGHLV
Test: flow cytometry competition on CHO-Nectin-4 cells; competitor biotinylated human Nectin-1-His
test-readout: EC50 (nM)
Answers are plain numbers, in nM.

Completed entries (count: 3):
N4_mAb 8 (antibody, human IgG1, V domains shown, Tested as chimera (murine variable regions, human IgG1/kappa constants); not shown: human IgG1 constant region (Uniprot P01857); human Kappa light chain constant region (UniProt P01834)) VH: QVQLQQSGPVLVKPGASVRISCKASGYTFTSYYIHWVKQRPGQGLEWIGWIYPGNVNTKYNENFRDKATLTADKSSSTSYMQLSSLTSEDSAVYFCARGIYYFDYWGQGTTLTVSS VL: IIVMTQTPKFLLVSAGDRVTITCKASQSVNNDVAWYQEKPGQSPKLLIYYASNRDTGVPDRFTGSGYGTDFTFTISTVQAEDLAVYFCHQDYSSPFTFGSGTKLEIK :: 0.33
N4_mAb 6 (antibody, human IgG1, V domains shown, Tested as chimera (murine variable regions, human IgG1/kappa constants); not shown: human IgG1 constant region (Uniprot P01857); human Kappa light chain constant region (UniProt P01834)) VH: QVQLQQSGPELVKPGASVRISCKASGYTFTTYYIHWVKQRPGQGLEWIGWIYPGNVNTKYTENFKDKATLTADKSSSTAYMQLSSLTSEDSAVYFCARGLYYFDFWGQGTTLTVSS VL: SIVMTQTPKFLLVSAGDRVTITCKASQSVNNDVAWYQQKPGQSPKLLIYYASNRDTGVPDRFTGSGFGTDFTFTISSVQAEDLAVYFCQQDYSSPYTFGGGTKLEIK :: 0.12
N4_mAb 7 (antibody, human IgG1, V domains shown, Tested as chimera (murine variable regions, human IgG1/kappa constants); not shown: human IgG1 constant region (Uniprot P01857); human Kappa light chain constant region (UniProt P01834)) VH: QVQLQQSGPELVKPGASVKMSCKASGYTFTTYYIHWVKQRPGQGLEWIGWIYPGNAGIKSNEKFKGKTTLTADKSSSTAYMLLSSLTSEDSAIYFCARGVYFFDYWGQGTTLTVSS VL: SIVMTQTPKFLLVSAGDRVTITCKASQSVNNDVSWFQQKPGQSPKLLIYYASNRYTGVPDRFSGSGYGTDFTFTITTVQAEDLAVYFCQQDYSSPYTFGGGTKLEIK :: 0.21

Now look at this one.
Task item: Please give the measured EC50 for this binder: N4_mAb 3 (antibody, human IgG1, V domains shown, Tested as chimera (human IgG1/kappa constants); not shown: human IgG1 constant region (Uniprot P01857); human Kappa light chain constant region (UniProt P01834)) VH: EVQLQQSGAELVKPGASVKLSCTVSGFNIKDTYMHWVKQRPEQGLEWIGRIDPANGNTKYDPKFQGKATIIADKASNTAYLQLSSLTSEDAAVYYCAHYYGSSYFAMDCWGQGTSVTVSS VL: DIVMTQSHKFMSTSVGDRVSITCKASQDVSTAVAWYQQKPGQSPKLLIYWASTRHTGVPDRFTGSGSGTDYTLTISSVQTEDLALYYCQQHYSTPLTFGAGTKLELK
Reply: 0.3
